Known IC50 of a selection of compounds
# tested_system: CDK1/cyclinB (Homo sapiens, UniProt P06493)
# Sequence (P06493 whole entry): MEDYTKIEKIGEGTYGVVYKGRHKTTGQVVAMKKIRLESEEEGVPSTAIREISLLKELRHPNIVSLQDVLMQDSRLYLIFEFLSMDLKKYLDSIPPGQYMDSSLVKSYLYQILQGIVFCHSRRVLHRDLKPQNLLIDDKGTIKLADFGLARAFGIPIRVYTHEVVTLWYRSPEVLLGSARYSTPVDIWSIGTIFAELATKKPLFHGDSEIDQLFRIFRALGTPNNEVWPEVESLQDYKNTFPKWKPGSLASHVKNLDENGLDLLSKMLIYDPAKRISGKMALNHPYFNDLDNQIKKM
# Sequence (P14635 whole entry partner): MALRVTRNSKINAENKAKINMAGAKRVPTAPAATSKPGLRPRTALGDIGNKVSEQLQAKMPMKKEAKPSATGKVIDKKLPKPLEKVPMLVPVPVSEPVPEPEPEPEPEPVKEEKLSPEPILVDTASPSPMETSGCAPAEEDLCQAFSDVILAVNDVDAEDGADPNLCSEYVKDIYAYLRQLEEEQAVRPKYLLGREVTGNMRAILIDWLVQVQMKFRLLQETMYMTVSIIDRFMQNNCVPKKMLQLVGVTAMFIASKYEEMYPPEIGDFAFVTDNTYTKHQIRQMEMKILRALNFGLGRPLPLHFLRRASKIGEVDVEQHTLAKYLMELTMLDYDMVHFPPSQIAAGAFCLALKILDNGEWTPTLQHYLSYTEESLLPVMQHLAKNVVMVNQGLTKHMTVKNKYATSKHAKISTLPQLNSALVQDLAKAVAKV
# measurement_description: In vitro kinase TR-FRET assay CDK1/cyclinB
# Assay type: biochemical
# protocol_conditions: enzyme 0.3 nM, ATP 56 μM
readout: IC50

>>> print(df.to_string())
                                   compound                             tested_system  readout  value_observed
0  CC(C)NC(=O)O[C@@H]1CC[C@H](c2cc(Nc3ccc4c(c3)N(C)C(=O)NS4(=O)=O)n[nH]2)C1  CDK1/cyclinB (Homo sapiens, UniProt P06493)     IC50  500 to 1000 nM
1  CC(C)NC(=O)O[C@@H]1CC[C@H](c2cc(Nc3cc4c(cn3)CCS4(=O)=O)n[nH]2)C1  CDK1/cyclinB (Homo sapiens, UniProt P06493)     IC50         < 50 nM
2  COC1CS(=O)(=O)c2ccc(Nc3cc([C@H]4CC[C@@H](OC(=O)NC(C)C)C4)n[nH]3)cc21 (stereo partly shown)  CDK1/cyclinB (Homo sapiens, UniProt P06493)     IC50    50 to 500 nM
3  CC(C)NC(=O)O[C@@H]1CC[C@H](c2cc(Nc3ccc4c(c3)CS(=O)(=O)N4C)n[nH]2)C1  CDK1/cyclinB (Homo sapiens, UniProt P06493)     IC50    50 to 500 nM
4  CC(C)NC(=O)O[C@@H]1CC[C@H](c2cc(Nc3ccc4c(c3)S(=O)(=O)CC4)n[nH]2)C1  CDK1/cyclinB (Homo sapiens, UniProt P06493)     IC50    50 to 500 nM
5  CC(C)NC(=O)O[C@@H]1CC[C@H](c2cc(Nc3cccc4c3CS(=O)(=O)CC4O)[nH]n2)C1 (stereo partly shown)  CDK1/cyclinB (Homo sapiens, UniProt P06493)     IC50    50 to 500 nM
6  O=C(NC1CC1)O[C@@H]1CC[C@H](c2cc(Nc3nccc4c3CCS4(=O)=O)n[nH]2)C1  CDK1/cyclinB (Homo sapiens, UniProt P06493)     IC50    50 to 500 nM

Values were extracted from patent US20240246950A1.
